FYI, the data here is from ChEMBL document CHEMBL5032508.

- method.summary: Growth inhibition of human HCC827-luc cells incubated for 72 hrs by CCK-8 assay
- Type: functional
value.type: log10(GI50) (log10 of the value in µM)

smiles.entry	log10(GI50)
Cc1c(OCC(=O)NO)ccc2c3c(c(=O)oc12)CCCC3	0.41
COc1c(OCC(=O)NO)ccc2c3c(c(=O)oc12)CCCC3	0.72
Cc1cc(=O)oc2c(C)c(OCC(=O)NO)ccc12	0.98
O=C(COc1ccc2c3c(c(=O)oc2c1Br)CCCC3)NO	-0.06
O=C(COc1ccc2c3c(c(=O)oc2c1)CCCC3)NO	0.00

----------
- method.summary: Dissociation constant, pKa of compound
- Type: physicochemical
Reported pKa values for the following molecules.

smiles.entry	pKa
Cc1ccccc1-c1c2ccc(=O)cc-2oc2cc(O)ccc12	6.2
O=c1cc(C(F)(F)F)c2cc(F)c(O)cc2o1	5.6
Cc1cc(=O)oc2cc(O)c(F)cc12	6.3

----------
The entries below come with measured GI50 values attached.
- method.summary: Growth inhibition of human HCC827-luc cells incubated for 72 hrs by CCK-8 assay
- Type: functional
value.type: GI50

compound	value.type	value.observed
Cc1c(OCC(=O)O)ccc2c3c(c(=O)oc12)CCCC3	GI50	> 100 µM
CC1(C)CC(=O)C2=C(C1)NC1=C(C(=O)c3ccccc31)C2c1ccc(Br)cc1 (centres undefined)	GI50	> 10 µM
NNC(=O)COc1ccc2c3c(c(=O)oc2c1Br)CCCC3	GI50	> 100 µM
Cc1c(OCc2nn[nH]n2)ccc2c3c(c(=O)oc12)CCCC3	GI50	> 100 µM
